pIC50: −log10 of the molar value.
Reported pIC50 on Glutaminyl-peptide cyclotransferase (Homo sapiens, UniProt Q16769) for assorted molecules, compiled from publications.
Sequence (Q16769 whole entry): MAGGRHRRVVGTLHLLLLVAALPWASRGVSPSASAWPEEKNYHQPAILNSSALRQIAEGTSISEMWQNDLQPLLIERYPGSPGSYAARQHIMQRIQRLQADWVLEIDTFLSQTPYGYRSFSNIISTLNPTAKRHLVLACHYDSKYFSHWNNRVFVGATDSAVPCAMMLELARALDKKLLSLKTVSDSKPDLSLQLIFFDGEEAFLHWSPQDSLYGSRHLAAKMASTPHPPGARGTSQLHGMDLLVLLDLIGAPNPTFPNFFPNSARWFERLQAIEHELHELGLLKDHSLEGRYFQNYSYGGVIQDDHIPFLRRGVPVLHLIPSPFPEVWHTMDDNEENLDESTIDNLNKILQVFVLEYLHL

Example entries and their recorded answers appear below.
CCCOc1ccc(C2CCC(=O)N2c2ccc3[nH]cnc3c2)cc1 (stereo unspecified) | > 5.00
CCCOc1ccc([C@H]2OC(=O)N(c3ccc4nc[nH]c4c3)[C@H]2c2ccc(OCCC)cc2)cc1 (single isomer, unassigned) | > 5.00
CCCOc1ccc(C2CNC(=O)N2c2ccc3[nH]cnc3c2)cc1F (stereo unspecified) | > 5.00

Recall the reported pIC50 of O=C1OCC(c2ccc(C3CCOCC3)cc2)N1c1ccc2[nH]cnc2c1 (stereo unspecified) when tested on Glutaminyl-peptide cyclotransferase (Homo sapiens, UniProt Q16769).
> 5.00

Recall the reported pIC50 of O=C1OC[C@H](c2cccc(N3CCOCC3)c2)N1c1ccc2[nH]cnc2c1 when tested on Glutaminyl-peptide cyclotransferase (Homo sapiens, UniProt Q16769).
> 5.00

Recall the reported pIC50 of COc1cc(C2CNC(=O)N2c2ccc3[nH]cnc3c2)ccc1F (stereo unspecified) when tested on Glutaminyl-peptide cyclotransferase (Homo sapiens, UniProt Q16769).
> 5.00

Recall the reported pIC50 of CN(C)CCCc1ccc([C@@H]2COC(=O)N2c2ccc3[nH]cnc3c2)cc1 when tested on Glutaminyl-peptide cyclotransferase (Homo sapiens, UniProt Q16769).
> 5.00

Recall the reported pIC50 of O=C1NC(=O)C(c2cn(CCCn3ccnc3)c3ccc(Br)cc23)=C1c1cc(C(F)(F)F)cc(C(F)(F)F)c1 when tested on Glutaminyl-peptide cyclotransferase (Homo sapiens, UniProt Q16769).
5.16

Recall the reported pIC50 of O=C1NCC(c2ccc(OC(F)(F)C(F)F)cc2)N1c1ccc2[nH]cnc2c1 (stereo unspecified) when tested on Glutaminyl-peptide cyclotransferase (Homo sapiens, UniProt Q16769).
> 5.00

Recall the reported pIC50 of Cc1ccc2c(c1)c(C1=C(c3ccccc3F)C(=O)NC1=O)cn2CCCn1ccnc1 when tested on Glutaminyl-peptide cyclotransferase (Homo sapiens, UniProt Q16769).
5.47

Recall the reported pIC50 of O=C1OC[C@H](C2CCN(c3ccccc3)CC2)N1c1ccc2[nH]cnc2c1 when tested on Glutaminyl-peptide cyclotransferase (Homo sapiens, UniProt Q16769).
> 5.00

Recall the reported pIC50 of COc1ccc2c(c1)c(C1=C(c3ccc(C)cc3)C(=O)NC1=O)cn2CCCn1ccnc1 when tested on Glutaminyl-peptide cyclotransferase (Homo sapiens, UniProt Q16769).
5.05

Recall the reported pIC50 of O=C1NC(=O)C(c2cn(CCCn3ccnc3)c3ccc(Br)cc23)=C1c1ccc(F)cc1 when tested on Glutaminyl-peptide cyclotransferase (Homo sapiens, UniProt Q16769).
5.59

Recall the reported pIC50 of O=C1c2ccccc2C(c2ccc(Cl)cc2)N1c1ccc2[nH]cnc2c1 (stereo unspecified) when tested on Glutaminyl-peptide cyclotransferase (Homo sapiens, UniProt Q16769).
> 5.00

Recall the reported pIC50 of COc1ccccc1C1=C(c2cn(CCCn3ccnc3)c3ccccc23)C(=O)NC1=O when tested on Glutaminyl-peptide cyclotransferase (Homo sapiens, UniProt Q16769).
5.14

Recall the reported pIC50 of O=C1OC[C@H](c2ccc3c(c2)OCCO3)N1c1ccc2nc[nH]c2c1 when tested on Glutaminyl-peptide cyclotransferase (Homo sapiens, UniProt Q16769).
> 5.00

Recall the reported pIC50 of COc1ccc(C2=C(c3cn(CCCn4ccnc4)c4ccccc34)C(=O)NC2=O)cc1 when tested on Glutaminyl-peptide cyclotransferase (Homo sapiens, UniProt Q16769).
5.13

Recall the reported pIC50 of COc1ccccc1C1=C(c2cn(CCCn3ccnc3)c3ccc(C)cc23)C(=O)NC1=O when tested on Glutaminyl-peptide cyclotransferase (Homo sapiens, UniProt Q16769).
5.09

Recall the reported pIC50 of O=C1NCC(c2cc(C(F)(F)F)ccc2F)N1c1ccc2[nH]cnc2c1 (stereo unspecified) when tested on Glutaminyl-peptide cyclotransferase (Homo sapiens, UniProt Q16769).
> 5.00

Recall the reported pIC50 of O=C1CNC(=S)N1 when tested on Glutaminyl-peptide cyclotransferase (Homo sapiens, UniProt Q16769).
3.41

Recall the reported pIC50 of C[C@@H]1OC(=O)N(c2ccc3nc[nH]c3c2)[C@H]1c1ccccc1 when tested on Glutaminyl-peptide cyclotransferase (Homo sapiens, UniProt Q16769).
> 5.00

Recall the reported pIC50 of O=C1NC(=O)C(c2cn(CCCn3ccnc3)c3ccc(Br)cc23)=C1c1ccccc1 when tested on Glutaminyl-peptide cyclotransferase (Homo sapiens, UniProt Q16769).
5.75

Recall the reported pIC50 of O=C1OC[C@H](c2cccc(N3CCCCC3)c2)N1c1ccc2[nH]cnc2c1 when tested on Glutaminyl-peptide cyclotransferase (Homo sapiens, UniProt Q16769).
> 5.00

Recall the reported pIC50 of O=C1NCC(c2ccc(C3CCCCC3)cc2)N1c1ccc2[nH]cnc2c1 (stereo unspecified) when tested on Glutaminyl-peptide cyclotransferase (Homo sapiens, UniProt Q16769).
> 5.00
